- TARGET OR SYSTEM: T1, ALK7-Fc comprising protein
- T1 construct: It is probably the human protein
- T1 sequence (Q8NER5 22-113): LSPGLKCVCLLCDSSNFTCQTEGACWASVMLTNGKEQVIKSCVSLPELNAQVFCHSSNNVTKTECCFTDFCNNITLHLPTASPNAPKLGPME
- EXPERIMENTAL DETAILS: SPR (Biacore T100/T200) at 25 °C, antibody captured on FAB chip, ALK7-Fc analyte, 1:1 fit
MEASURED ENDPOINT: koff (s⁻¹)
Just the number please, in s⁻¹, no unit attached.

J02 (antibody, V domains shown, also called mAb J02; ALK7 mAb J02) VH: EVQLLESGGGLVQPGGSLRLSCAASGFTFSVYAMSWVRQAPGKGLEWVSAISGSGDSTVYADSVKGRFTISRDNSKNTLYLQMNSLRAEDTAVYYCAKPSYQPIYWGQGTLVTVSS VL: DIQMTQSPSSVSASVGDRVTITCRASQGISSWLAWYQQKPGKAPKLLIYAASSLQSGVPSRFSGSGSGTDFTLTISSLQPEDFATYYCQQAASYPLTFGGGTKVEIK
0.000126

Would you kindly look at the next entry?
Input: Need koff, item G05 (antibody, V domains shown, also called mAb G05; ALK7 mAb G05) VH: QVQLVQSGAEVKKPGSSVKVSCKASGGTFSGQAISWVRQAPGQGLEWMGGIIPSFGTARYAQKFQGRVTITADESTSTAYMELSSLRSEDTAVYYCARTPYYDSSGYLDVWGQGTMVTVSS VL: DIQMTQSPSSLSASVGDRVTITCQASHDIDNYLNWYQQKPGKAPKLLIYYASNLKTGVPSRFSGSGSGTDFTFTISSLQPEDIATYYCQQSRASPPTFGGGTKVEIK
Output: 2.59e-05
